System: cucumber downy mildew
Assay: Protectant activity in vivo (whole plant) against cucumber downy mildew
Conditions: 50 mg/L
measurement name: the protectant activity (%) against cucumber downy mildew
Enter your answer as a number in %; do not include the unit.

- smiles data: "COc1c(Cl)c(Nc2c(Cl)cc([N+](=O)[O-])cc2Cl)c(C#N)c(Cl)c1C#N"
  system tested: "cucumber downy mildew"
  unit: "%"
  quantitative readout: 98
- smiles data: "CN(C)c1c(Cl)c(Nc2c(Cl)cc([N+](=O)[O-])cc2Cl)c(C#N)c(Cl)c1C#N"
  system tested: "cucumber downy mildew"
  unit: "%"
  quantitative readout: 100
- smiles data: "N#Cc1c(Cl)c(Cl)c(Nc2cc(Cl)cnc2Cl)c(C#N)c1Cl"
  system tested: "cucumber downy mildew"
  unit: "%"
  quantitative readout: 100
- smiles data: "N#Cc1c(Cl)c(Cl)c(Nc2cc(C(F)(F)F)ccc2Cl)c(C#N)c1Cl"
  system tested: "cucumber downy mildew"
  unit: "%"
  quantitative readout: 100
- smiles data: "N#Cc1c(Cl)c(Cl)c(Nc2c(Br)cc([N+](=O)[O-])cc2Br)c(C#N)c1Cl"
  system tested: "cucumber downy mildew"
  unit: "%"
  quantitative readout: 100

Please report the recorded the protectant activity (%) against cucumber downy mildew for `Cc1cc([N+](=O)[O-])cc(Cl)c1Nc1c(Cl)c(Cl)c(C#N)c(Cl)c1C#N` .
100

Look at this molecule and give its reported the protectant activity (%) against cucumber downy mildew. `N#Cc1ccc(Nc2c(Cl)c(Cl)c(C#N)c(Cl)c2C#N)cc1C(F)(F)F`
100

Which the protectant activity (%) against cucumber downy mildew value is on record for `N#Cc1c(Cl)c(Cl)c(Nc2ccc([N+](=O)[O-])cc2Cl)c(C#N)c1Cl` ?
98

Given `N#Cc1c(Cl)c(Cl)c(Nc2c(Cl)cncc2Cl)c(C#N)c1Cl` , state its recorded the protectant activity (%) against cucumber downy mildew.
98

Could you share which the protectant activity (%) against cucumber downy mildew value was measured for `N#Cc1c(Cl)c(Cl)c(Nc2c(Cl)cc([N+](=O)[O-])cc2Cl)c(C#N)c1Cl` ?
100

Requested read-out: the protectant activity (%) against cucumber downy mildew. Entry: `N#Cc1c(Cl)c(Cl)c(Nc2ccc(C(F)(F)F)cc2Cl)c(C#N)c1Cl`
98

---

Tested on: cucumber downy mildew
Experiment: Protectant activity in vivo (whole plant) against cucumber downy mildew
Conditions: Cucumis sativus, 168 h; 50 mg/L; read-out: the protectant activity (%) against cucumber downy mildew
Measured pest or weed control at 50 µg/mL, listed per entry.
Answer with a number only, understood to be in %.

Field: example entries. Status: answers known.
- smiles data: "N#Cc1c(F)c(F)c(C#N)c(Nc2ccc(O)cc2)c1F"
  system tested: "cucumber downy mildew"
  unit: "%"
  pest or weed control at 50 µg/mL: 0
- smiles data: "CN(C)c1ccc(Nc2c(F)c(F)c(C#N)c(F)c2C#N)cc1"
  system tested: "cucumber downy mildew"
  unit: "%"
  pest or weed control at 50 µg/mL: 0
- smiles data: "N#Cc1c(F)c(F)c(Nc2ccccc2)c(C#N)c1F"
  system tested: "cucumber downy mildew"
  unit: "%"
  pest or weed control at 50 µg/mL: 10
- smiles data: "COc1ccc(Nc2c(F)c(F)c(C#N)c(F)c2C#N)cc1"
  system tested: "cucumber downy mildew"
  unit: "%"
  pest or weed control at 50 µg/mL: 10
- smiles data: "COc1ccc(Nc2c(Cl)c(F)c(C#N)c(F)c2C#N)cc1"
  system tested: "cucumber downy mildew"
  unit: "%"
  pest or weed control at 50 µg/mL: 0
- smiles data: "N#Cc1c(F)c(F)c(Nc2ccc(Cl)c(Cl)c2)c(C#N)c1F"
  system tested: "cucumber downy mildew"
  unit: "%"
  pest or weed control at 50 µg/mL: 0
- smiles data: "N#Cc1c(F)c(F)c(Nc2ccc(Cl)cc2)c(C#N)c1F"
  system tested: "cucumber downy mildew"
  unit: "%"
  pest or weed control at 50 µg/mL: 0
- smiles data: "N#Cc1c(Cl)c(Cl)c(Nc2ccccc2)c(C#N)c1Cl"
  system tested: "cucumber downy mildew"
  unit: "%"
  pest or weed control at 50 µg/mL: 0
- smiles data: "Cc1ccc(Nc2c(Cl)c(Cl)c(C#N)c(Cl)c2C#N)cc1"
  system tested: "cucumber downy mildew"
  unit: "%"
  pest or weed control at 50 µg/mL: 0

Next item in the queue.
Please state recorded pest or weed control at 50 µg/mL (tested on cucumber downy mildew) of `N#Cc1c(Cl)c(Cl)c(Cl)c(C#N)c1Cl`
80

---

System: cucumber gray mold
Assay: Activity in vitro (96-well, High Through Put): inhibition rate against cucumber gray mold
Assay type: cell-based
Conditions: 0.9 mg/L
As shown below, each of these compounds has a reported the inhibition rate against cucumber gray mold (%) value.

Example entries and their recorded answers appear below.
- compound: "N#Cc1cc(Cl)c(Nc2c(Cl)c(Cl)c(C#N)c(Cl)c2C#N)c(Cl)c1 [Compound B-51]"
  system tested: "cucumber gray mold"
  result: "80%"
- compound: "N#Cc1c(Cl)c(Cl)c(C#N)c(Nc2c(F)cc([N+](=O)[O-])cc2F)c1Cl [Compound C-45]"
  system tested: "cucumber gray mold"
  result: "100%"
- compound: "N#Cc1c(Cl)c(Cl)c(Nc2c(F)cc([N+](=O)[O-])cc2F)c(Cl)c1C#N [Compound A-43]"
  system tested: "cucumber gray mold"
  result: "100%"
- compound: "N#Cc1c(Cl)c(Cl)c(Nc2ccc([N+](=O)[O-])cc2Cl)c(C#N)c1Cl [Compound B-35]"
  system tested: "cucumber gray mold"
  result: "100%"

Recorded the inhibition rate against cucumber gray mold (%) for N#Cc1c(Cl)c(Cl)c(C#N)c(Nc2c(F)cc([N+](=O)[O-])cc2Cl)c1Cl [Compound C-46] with cucumber gray mold, please?
100%

---

Test system: cucumber gray mold
Assay: Activity in vitro (96-well, High Through Put): inhibition rate against cucumber gray mold
Format: cell-based
Details: 0.9 mg/L
Description: The method is as followed: High Through Put is used in the test. The compound is dissolved in a proper solvent to become a testing solution whose concentration is designed. The solvent is selected from acetone, methanol, DMF and so on according to their dissolving capability to the sample. […] 24 hours later, pathogen germination or growth can be investigated by eyeballing, and the activity in vitro of the compound is evaluated based on germination or growth of control treatment.
measurement name: the inhibition rate against cucumber gray mold (%)
# value in %; strip the unit string

Solved cases (2 shown):
- compound: "COc1c(Cl)c(Nc2c(Cl)cc([N+](=O)[O-])cc2Cl)c(C#N)c(Cl)c1C#N [Compound B-74]"
  quantitative readout: 80
- compound: "N#Cc1c(Cl)c(Cl)c(Nc2c(Cl)cc([N+](=O)[O-])cc2Cl)c(C#N)c1Cl [Compound B-54]"
  quantitative readout: 100

Query for cucumber gray mold: what the inhibition rate against cucumber gray mold (%) does the record show for N#Cc1c(Cl)c(Cl)c(Nc2cc(Cl)c(C(F)(F)F)cc2Cl)c(C#N)c1Cl [Compound B-52] ?
100

What is its the inhibition rate against cucumber gray mold (%) for cucumber gray mold? Entry: N#Cc1c(Cl)c(Cl)c(Nc2c(Br)cc([N+](=O)[O-])cc2Br)c(C#N)c1Cl [Compound B-57]
80

Please tell me: the inhibition rate against cucumber gray mold (%) of N#Cc1c(Cl)c(Cl)c(Nc2cc(C(F)(F)F)ccc2Cl)c(C#N)c1Cl [Compound B-29] , system cucumber gray mold?
50

Missing value: the inhibition rate against cucumber gray mold (%), cucumber gray mold, entry N#Cc1c(Cl)c(Cl)c(Nc2c(F)cc([N+](=O)[O-])cc2Cl)c(C#N)c1Cl [Compound B-53] . Fill in?
100

Provide value of the inhibition rate against cucumber gray mold (%) for this record tested with cucumber gray mold: N#Cc1c(Cl)c(Cl)c(Nc2ccc([N+](=O)[O-])cc2Cl)c(Cl)c1C#N [Compound A-15]
100

# query: the inhibition rate against cucumber gray mold (%) | item Cc1cc([N+](=O)[O-])cc(Cl)c1Nc1c(Cl)c(Cl)c(C#N)c(Cl)c1C#N [Compound B-58] | system: cucumber gray mold
100

---

System: rice blast
Test: microbe, parasite or virus in culture
Type: cell-based
Conditions: Table 21, 0.1 mg/L
measurement name: the inhibition rate against rice blast (%) 0.1 mg/L

- smiles data: "N#Cc1c(Cl)c(Cl)c(C#N)c(Nc2c(F)cc([N+](=O)[O-])cc2Cl)c1Cl"
  system tested: "rice blast"
  result: "100%"
- smiles data: "COc1c(Cl)c(Nc2c(Cl)cc([N+](=O)[O-])cc2Cl)c(C#N)c(Cl)c1C#N"
  system tested: "rice blast"
  result: "50%"
- smiles data: "N#Cc1c(Cl)c(Cl)c(Nc2ccc(C(F)(F)F)cc2Cl)c(C#N)c1Cl"
  system tested: "rice blast"
  result: "100%"

// switching to the query compound
Quick one: the inhibition rate against rice blast (%) 0.1 mg/L of `N#Cc1cc(Cl)c(Nc2c(Cl)c(Cl)c(C#N)c(Cl)c2C#N)c(Cl)c1` ?
50%

Attribution: patent US8937072B2
